Tested on: kochia (Kochia scoparia)
ASSAY_DETAILS: Test A greenhouse herbicide test, pre- and postemergence
Assay type: in vivo
RUN_CONDITIONS: Preemergence, 125 g ai/ha; 0 to 100 scale where 0 is no effect and 100 is complete control
Reported Kochia plant response rating by item:
PROPERTY: Kochia plant response rating

# COMPOUND, ASSAY_RESULT
measured = [
    ("COC(=O)Oc1c(C)nn(C)c(=O)c1-c1ccc(F)c2ccccc12 [Compound 130]", 60),
    ("CCC(=O)Oc1c(OC)nn(C)c(=O)c1-c1c(C)sc2ccc(Cl)cc12 [Compound 131]", 0),
    ("COc1ccc(-c2c(O)c(C)nn(C)c2=O)c2ccccc12 [Compound 58]", 20),
    ("Cc1nn(C)c(=O)c(-c2cccc3ccc(Br)cc23)c1O [Compound 126]", 50),
    ("Cn1nc(Br)c(O)c(-c2cccc3ccccc23)c1=O [Compound 20]", 80),
    ("COc1nn(C)c(=O)c(-c2c(C)ccc3ccc(C)cc23)c1O [Compound 30]", 0),
    ("COC(=O)Oc1c(C)nn(C)c(=O)c1-c1ccc(Br)c2ccccc12 [Compound 145]", 90),
    ("COc1nn(C)c(=O)c(-c2c(C(F)F)ccc3ccccc23)c1O [Compound 86]", 0),
    ("Cc1sc2ccccc2c1-c1c(O)c(Cl)nn(C)c1=O [Compound 89]", 70),
]
